These data points were gathered from patent US11377442B2.

- Test system: Renilla_ERa
- procedure_summary: Renilla signal in ERα counterscreen (Renilla_ERa)
- Type: cell-based
- applied_conditions: 10 uM; read-out: Renilla ERalpha transient, cmpd/DMSO (mean)
// not met strictly below 0.8 in fold induction at 10 µM; met otherwise

API: above_or_equal(metric=fold induction at 10 µM, cutoff=0.8) for item Cc1ccc(CCCNc2c(C#N)c(C(F)(F)F)nc3ccc(Oc4ccccc4)cc23)cc1 [Compound Z42] met

API: above_or_equal(metric=fold induction at 10 µM, cutoff=0.8) for item CCOC(=O)c1cnc2c(Cl)cc(Cl)cc2c1NCCCN(C)C [Compound Z35] met

API: above_or_equal(metric=fold induction at 10 µM, cutoff=0.8) for item CNc1c(C#N)c(C(F)(F)F)nc2ccc(Oc3ccccc3)cc12 [Compound Z53] not met

API: above_or_equal(metric=fold induction at 10 µM, cutoff=0.8) for item COc1ccc2nc(C(F)(F)F)c(C#N)c(N3CCN(C)CC3)c2c1 [Compound Z41] met

API: above_or_equal(metric=fold induction at 10 µM, cutoff=0.8) for item O=c1cccc2n1CC1CC2CN(c2nc(NCCC3=CCCCC3)nc(N3CCCC3)n2)C1 (stereo not drawn) [Compound 32] met

API: above_or_equal(metric=fold induction at 10 µM, cutoff=0.8) for item N#Cc1c(C(F)(F)F)nc2ccc(Oc3ccccc3)cc2c1N1CCNCC1 [Compound Z51] met

API: above_or_equal(metric=fold induction at 10 µM, cutoff=0.8) for item Cc1cc(C)c2ncc(C(=O)N(C)C)c(NCCCN(C)C)c2c1 [Compound Z31] met

API: above_or_equal(metric=fold induction at 10 µM, cutoff=0.8) for item COc1ccc2nc(C(F)(F)F)c(C#N)c(NCc3ccc(Cl)cc3)c2c1 [Compound Z38] not met

API: above_or_equal(metric=fold induction at 10 µM, cutoff=0.8) for item CCOC(=O)c1cnc2ccc(C)cc2c1NCCCN(C)C [Compound Z33] met

API: above_or_equal(metric=fold induction at 10 µM, cutoff=0.8) for item CCCNc1nc(N2CCOCC2)nc(N2CC3CC(C2)c2cccc(=O)n2C3)n1 (stereo not drawn) [Compound 37] met

API: above_or_equal(metric=fold induction at 10 µM, cutoff=0.8) for item CCOC(=O)c1cnc2cc(C)c(C)cc2c1NCCCN(C)C [Compound Z34] met

API: above_or_equal(metric=fold induction at 10 µM, cutoff=0.8) for item CCOC(=O)c1cnc2c(Cl)cc(Cl)cc2c1NCCCN1CCCC1 [Compound Z36] met

API: above_or_equal(metric=fold induction at 10 µM, cutoff=0.8) for item Cc1cc(C)c2ncc(C(=O)N3CCCC3)c(NCCCN(C)C)c2c1 [Compound Z32] met
